- Test system: primary human hepatic stellate cells (donor 1)
- protocol.summary: scaled lipid accumulation score (0 = DMSO-like, 1 = nortriptyline-like); higher = stronger HSC inactivation (lipid re-accumulation), active = hit call of the paper
- assay.context: library stock concentration: 3.33 mM; 48 h
Hit rate of the full screen: of about 5,800 compounds, about 620 (11%) showed activity.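 The calls were made as follows: active = score above a cut-off or among the top three wells of a plate; in these data no inactive exceeds 0.85.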 For the sample, actives were picked, then their nearest neighbours and some compounds at random.
Output constraint: value belongs to Yes for active, No for inactive

Asked: Assay result, entry N=C(N)N/N=C/c1c(Cl)cccc1Cl [Guanabenz Acetate] — outcome?
Given back: No

Asked: Assay result, entry CN1CCC(CNc2ccc3ncc(-c4cccc(OC(F)(F)F)c4)n3n2)CC1 [SGI-1776 free base] — outcome?
Given back: No

Asked: Assay result, entry `Cc1cc(CS(=O)(=O)c2ccccc2)cc(OCc2ccc(CN3CCC[C@@H]3CO)cc2)c1` — outcome?
Given back: No

Asked: Assay result, entry `Nc1ccc(C(=O)Nc2cccc(-c3nc(N4CCOCC4)c4oc5ncccc5c4n3)c2)cn1` — outcome?
Given back: No

Asked: Assay result, entry C=CCNC(N)=S [Allylthiourea] — outcome?
Given back: No

====

- Test system: primary human hepatic stellate cells (donor 1)
- protocol.summary: scaled lipid accumulation score (0 = DMSO-like, 1 = nortriptyline-like); higher = stronger HSC inactivation (lipid re-accumulation), active = hit call of the paper
- assay.context: library stock concentration: 400 uM; 48 h
The campaign covered roughly 5,800 compounds. About 620 (11%) showed activity. What follows is part of a selection rich in actives, with near analogues and random picks from the rest.
result.type: scaled lipid accumulation score

Look up scaled lipid accumulation score for the entries below, preserving their order.
1. CN1CCC(c2c(O)cc(O)c3c(=O)cc(-c4ccccc4Cl)oc23)C1CO (centres undefined)
2. Cc1ccc(-n2nc(C(C)(C)C)cc2NC(=O)Nc2ccc(OCCN3CCOCC3)c3ccccc23)cc1
3. COC(=O)c1ccc2c(c1)NC(=O)/C2=C(\Nc1ccc(N(C)C(=O)CN2CCN(C)CC2)cc1)c1ccccc1
4. COCCOc1ccc2c(c1)ncn2-c1ccc2cccc(N3CCC(N)CC3)c2n1
5. CC(C)(C)c1cc(NC(=O)Nc2ccc(-c3cn4c(n3)sc3cc(OCCN5CCOCC5)ccc34)cc2)no1
6. COc1cc2c(cc1OC)-c1[nH]nc(Nc3cccc(F)c3)c1C2

Given back:
1. 0.272 (inactive)
2. ≤ -0.009 (inactive)
3. 0.323 (inactive)
4. 0.202 (inactive)
5. ≤ -0.005 (inactive)
6. ≤ -0.001 (inactive)

Look up scaled lipid accumulation score for the entries below, preserving their order.
1. CCN1CCN(Cc2ccc(NC(=O)c3ccc(C)c(Oc4ccnc5[nH]ccc45)c3)cc2C(F)(F)F)CC1
2. CC(=O)Nc1nc(C)c(-c2ccc(Cl)c(S(=O)(=O)NCCO)c2)s1
3. CC(C)n1cnc2c(NCc3ccccc3)nc(NCCCO)nc21

Given back:
1: 0.308 (inactive); 2: ≤ -0.016 (inactive); 3: ≤ -0.001 (inactive)

====

- Tested on: primary human hepatic stellate cells (donor 1)
- protocol.summary: scaled lipid accumulation score (0 = DMSO-like, 1 = nortriptyline-like); higher = stronger HSC inactivation (lipid re-accumulation), active = hit call of the paper
- assay.context: library stock concentration: 10 mM; 48 h
Where a name gives a salt, the structure may show the parent alone. Hit rate of the full screen: of about 5,800 compounds, about 620 (11%) showed activity.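 How the source made its calls: active = score above a cut-off or among the top three wells of a plate; in these data no inactive exceeds 0.85.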 The list comes from a sample in which actives are over-represented; it also holds close analogues and randomly drawn compounds.
Output constraint: value belongs to Y = active, N = inactive

compound	label.class
Cn1cc(C2=C(c3c4n(c5ccccc35)CCC(CN)C4)C(=O)NC2=O)c2ccccc21 (centres undefined) [Bisindoylmaleimide X HCl salt (Ro 31-8425) (10 mM)]	N
CCCS(=O)(=O)Nc1ccc(F)c(C(=O)c2c[nH]c3ncc(Cl)cc23)c1F	Y
CC(C)OC(=O)CCC/C=C\C[C@@H]1[C@@H](/C=C/[C@@H](O)COc2cccc(C(F)(F)F)c2)[C@H](O)C[C@@H]1O	N

Asked: Assay result, entry `CC(=O)Nc1c(I)cc(I)c(C(=O)O)c1I` — outcome?
Given back: N
